Target: recombinant human NaV1.8 stably transfected HEK cells (Homo sapiens, UniProt Q9Y5Y9)
Construct: expressed in transfected cells; host or cells: HEK cells, stably transfected
Sequence (Q9Y5Y9 whole entry): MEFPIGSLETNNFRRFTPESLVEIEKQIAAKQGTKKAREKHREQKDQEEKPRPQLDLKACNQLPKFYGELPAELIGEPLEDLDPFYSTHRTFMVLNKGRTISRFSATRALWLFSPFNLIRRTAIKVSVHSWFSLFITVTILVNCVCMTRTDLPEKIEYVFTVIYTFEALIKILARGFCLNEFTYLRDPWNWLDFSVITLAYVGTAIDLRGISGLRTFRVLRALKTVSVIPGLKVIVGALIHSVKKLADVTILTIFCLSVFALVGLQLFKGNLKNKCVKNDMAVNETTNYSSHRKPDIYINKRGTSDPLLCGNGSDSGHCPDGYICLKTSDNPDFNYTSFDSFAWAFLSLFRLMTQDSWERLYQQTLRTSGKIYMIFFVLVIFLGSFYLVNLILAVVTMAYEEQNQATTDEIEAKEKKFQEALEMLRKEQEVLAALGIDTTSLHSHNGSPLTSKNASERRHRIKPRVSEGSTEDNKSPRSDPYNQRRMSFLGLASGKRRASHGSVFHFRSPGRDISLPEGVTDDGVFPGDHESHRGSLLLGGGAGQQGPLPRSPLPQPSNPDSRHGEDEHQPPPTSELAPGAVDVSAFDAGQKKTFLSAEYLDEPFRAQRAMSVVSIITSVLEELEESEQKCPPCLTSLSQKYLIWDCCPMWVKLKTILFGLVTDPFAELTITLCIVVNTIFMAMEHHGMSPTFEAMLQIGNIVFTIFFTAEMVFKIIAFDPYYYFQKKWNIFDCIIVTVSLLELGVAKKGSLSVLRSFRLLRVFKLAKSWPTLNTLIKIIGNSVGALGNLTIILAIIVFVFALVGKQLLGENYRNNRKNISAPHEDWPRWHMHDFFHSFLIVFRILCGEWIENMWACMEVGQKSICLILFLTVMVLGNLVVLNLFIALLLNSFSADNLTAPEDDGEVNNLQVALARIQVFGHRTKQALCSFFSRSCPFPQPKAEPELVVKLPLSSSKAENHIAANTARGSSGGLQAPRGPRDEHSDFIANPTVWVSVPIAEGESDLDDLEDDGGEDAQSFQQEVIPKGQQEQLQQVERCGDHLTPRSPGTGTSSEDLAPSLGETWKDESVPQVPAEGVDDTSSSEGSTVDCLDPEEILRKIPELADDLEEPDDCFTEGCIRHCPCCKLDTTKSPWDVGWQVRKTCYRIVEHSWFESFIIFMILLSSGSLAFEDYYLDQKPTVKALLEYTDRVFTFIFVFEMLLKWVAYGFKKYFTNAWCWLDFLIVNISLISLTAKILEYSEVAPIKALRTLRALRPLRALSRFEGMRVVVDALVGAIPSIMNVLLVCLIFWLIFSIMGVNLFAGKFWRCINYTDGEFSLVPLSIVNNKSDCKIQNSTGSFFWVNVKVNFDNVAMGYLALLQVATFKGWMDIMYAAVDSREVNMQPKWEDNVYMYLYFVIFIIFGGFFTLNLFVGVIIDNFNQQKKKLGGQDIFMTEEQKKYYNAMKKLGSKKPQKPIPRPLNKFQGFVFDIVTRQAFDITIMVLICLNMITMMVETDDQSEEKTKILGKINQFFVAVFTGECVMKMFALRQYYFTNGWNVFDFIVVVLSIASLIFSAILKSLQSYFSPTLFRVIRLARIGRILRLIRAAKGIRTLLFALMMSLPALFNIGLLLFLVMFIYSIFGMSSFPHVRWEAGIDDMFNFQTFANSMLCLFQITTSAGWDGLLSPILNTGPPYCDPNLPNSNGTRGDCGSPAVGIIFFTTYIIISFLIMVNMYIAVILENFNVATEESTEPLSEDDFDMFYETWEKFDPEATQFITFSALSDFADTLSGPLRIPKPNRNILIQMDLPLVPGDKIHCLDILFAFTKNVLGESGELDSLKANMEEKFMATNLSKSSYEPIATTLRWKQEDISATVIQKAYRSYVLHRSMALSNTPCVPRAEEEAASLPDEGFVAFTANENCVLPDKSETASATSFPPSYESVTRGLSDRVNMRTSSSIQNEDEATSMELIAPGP
Experiment: Compound profiling on NaV1.8, human NaV1.8 cell line, SyncroPatch384PE automated patch clamp assay (Example 102, first set of compounds, Table 16)
Type: cell-based
Conditions: inactivated state block (P2 measurement), human NaV1.8 HEK cells, Table 16 (first set of compounds), read-out: P2IC50
recorded metric: IC50

In: Form field: reported IC50 of Cc1cc(F)ccc1Oc1ncc(C(F)(F)F)c(C)c1C(=O)Nc1cccc(S(C)(=N)=O)c1 (stereo not shown) [Compound 1557]
Out: ≤ 20 nM

In: If you can, please state the reported IC50 value of COc1cc(C#N)ccc1Oc1nnc(-c2cncn2C)c(C)c1C(=O)Nc1cccc(S(C)(=N)=O)c1 (stereo not shown) [Compound 1447] .
Out: 20 to 40 nM

In: Item CS(=O)(=O)c1cccc(NC(=O)c2cc(C(F)(F)F)cnc2OC2CCC(F)(F)CC2)c1 [Compound 1660] has what recorded IC50?
Out: 40 to 200 nM

In: Endpoint output: IC50 of COc1cc(C#N)ccc1Oc1nnc(C(F)(F)F)c(C)c1C(=O)Nc1cccc(S(N)(=O)=O)c1 [Compound 1418] . Value?
Out: ≤ 20 nM

In: Give its IC50 value. Item: Cc1nc(OC2CCC2)ccc1Oc1ncc(C(F)(F)F)cc1C(=O)Nc1ccc(C(N)=O)cc1 [Compound 1566]
Out: 200 to 500 nM

New cases:
In: Data request, read-out IC50, for Cc1c(C(F)(F)F)nnc(Oc2ccc(C(N)=O)cc2)c1C(=O)Nc1cccc(S(C)(=N)=O)c1 (stereo not shown) [Compound 1513]
Out: 200 to 500 nM

In: // IC50 lookup, key: COc1ncc(Oc2ncc(C(F)(F)F)cc2C(=O)Nc2cccc(S(C)(=N)=O)c2)cc1F (stereo not shown) [Compound 1699]
Out: 200 to 500 nM

* * *

Biological target: recombinant human NaV1.8 stably transfected HEK cells (Homo sapiens, UniProt Q9Y5Y9)
Construct: expressed in transfected cells; host or cells: HEK cells, stably transfected
Assay: Compound profiling on NaV1.8, human NaV1.8 cell line, SyncroPatch384PE automated patch clamp assay (Example 102, first set of compounds, Table 16)
Assay type: cell-based
Conditions: resting state block (P1 measurement), human NaV1.8 HEK cells, Table 16 (first set of compounds), read-out: P1IC50
pIC50: −log10 of the molar value.
recorded metric: pIC50

In: Which pIC50 value is on record for COc1nc(C#N)ccc1Oc1ncc(C(F)(F)F)cc1C(=O)Nc1cccc([S@](C)(=N)=O)c1 [Compound 1655] ?
Out: ≥ 7.70

In: Can you share its pIC50? I mean this molecule: CS(=N)(=O)c1cccc(NC(=O)c2cc(C(F)(F)F)cnc2OCC23CC(C#N)(C2)C3)c1 (centres unmarked) [Compound 1631]
Out: 6.30 to 6.70

In: What does the record list as pIC50 for COc1ccc(-c2nnc(Oc3ccc(C#N)cc3OC)c(C(=O)Nc3cccc([S@](C)(=N)=O)c3)c2C)cc1 [Compound 1535] ?
Out: 7.40 to 7.70

In: # get_value(readout='pIC50', item= COc1cc(C#N)ccc1Oc1nnc(-c2ccc(C)nc2)c(C)c1C(=O)Nc1cccc(S(C)(=N)=O)c1 (centres unmarked) [Compound 1455] )
Out: 6.30 to 6.70

In: Entry under review: Cc1nc(F)ccc1Oc1ncc(C(F)(F)F)cc1C(=O)Nc1cccc([S@@](C)(=N)=O)c1 (single isomer, unassigned) [Compound 1594] . Reported pIC50?
Out: 6.70 to 7.40

In: Give its pIC50 value. Item: Cc1c(Oc2ncc(C(F)(F)F)cc2C(=O)Nc2cccc(S(C)(=N)=O)c2)ccc(OC(F)(F)F)c1F (single isomer, unassigned) [Compound 1715]
Out: ≥ 7.70

In: Bench note: what pIC50 did CS(=O)(=O)c1cccc(NC(=O)c2cc(C(F)(F)F)cnc2OCC2CC2)c1 [Compound 1602] show?
Out: 6.30 to 6.70

In: // returns reported pIC50 for input CS(=O)(=O)c1cccc(NC(=O)c2cc(C(F)(F)F)cnc2Oc2ccc(C#N)nc2)c1 [Compound 1703]
Out: 6.30 to 6.70

In: Could you tell me which pIC50 is on file for COc1cc(C#N)ccc1Oc1nnc(-c2ccccc2)c(C)c1C(=O)Nc1cccc(S(C)(=N)=O)c1 (centres unmarked) [Compound 1436] ?
Out: 7.40 to 7.70

In: // lookup pIC50 for CS(=O)(=O)c1cccc(NC(=O)c2cc(C(F)(F)F)cnc2OC2CCC(F)(F)CC2)c1 [Compound 1660]
Out: 6.70 to 7.40

In: Entry COc1c(Oc2nnc(C(F)(F)F)c(C)c2C(=O)Nc2cccc(S(C)(=N)=O)c2)ccc(F)c1F (single isomer, unassigned) [Compound 1473] has what pIC50?
Out: ≥ 7.70

In: Could you share which pIC50 value was measured for CS(=O)(=O)c1cccc(NC(=O)c2cc(C(F)(F)F)cnc2Oc2cccc3c2OCCC3)c1 [Compound 1626] ?
Out: 6.30 to 6.70

In: For the molecule shown here, COc1cc(C#N)ccc1Oc1nnc(C(F)(F)F)c(C)c1C(=O)Nc1cccc(C(=O)NS(C)(=O)=O)c1 [Compound 1542] , give the reported pIC50.
Out: 6.30 to 6.70

In: Given the molecule COc1cc(C#N)ccc1Oc1nnc(-c2ccccn2)c(C)c1C(=O)Nc1cccc(S(C)(=N)=O)c1 (centres unmarked) [Compound 1458] , what is its reported pIC50?
Out: 6.30 to 6.70

* * *

Biological target: recombinant human NaV1.8 stably transfected HEK cells (Homo sapiens, UniProt Q9Y5Y9)
Construct: expressed in transfected cells; host or cells: HEK cells, stably transfected
Assay: Compound profiling on NaV1.8, human NaV1.8 cell line, SyncroPatch384PE automated patch clamp assay (Example 102, first set of compounds, Table 16)
Assay type: cell-based
Conditions: resting state block (P1 measurement), human NaV1.8 HEK cells, Table 16 (first set of compounds), read-out: P1IC50
The entries below are paired with their reported IC50.

In: Can you look up the measured IC50 of Cc1c(C(F)(F)F)nnc(Oc2ccc(OC(C)C)c(F)c2F)c1C(=O)Nc1cccc(S(C)(=N)=O)c1 (stereo not shown) [Compound 1501] for me?
Out: ≤ 20 nM

In: Could you share which IC50 value was measured for Cc1cc(F)ccc1Oc1nnc(C#N)c(C)c1C(=O)Nc1cccc(S(C)(=N)=O)c1 (stereo not shown) ?
Out: 200 to 500 nM

Next:
In: # get_value(readout='IC50', item= COc1cc(Cl)ccc1Oc1nnc(C(F)(F)F)c(C)c1C(=O)Nc1ccc(C(N)=O)cc1 )
Out: 20 to 40 nM

In: What does the record list as IC50 for Cc1c(C(F)(F)F)nnc(Oc2ccc(OC3CCC3)c(F)c2F)c1C(=O)Nc1cccc(S(C)(=N)=O)c1 (single isomer, unassigned) [Compound 1494] ?
Out: ≤ 20 nM

In: Give the measured IC50 of COc1cc(F)ccc1Oc1nnc(C(F)(F)F)c(OC)c1C(=O)Nc1cccc([S@@](C)(=N)=O)c1 .
Out: ≤ 20 nM

In: So what's the measured IC50 for this one? Cc1cc(F)ccc1COc1ncc(C(F)(F)F)cc1C(=O)Nc1cccc(S(C)(=O)=O)c1
Out: 200 to 500 nM

In: For CS(=O)(=O)c1cccc(NC(=O)c2cc(C(F)(F)F)cnc2Oc2cccn3ccnc23)c1 , what is its reported IC50?
Out: 200 to 500 nM

In: I am curious: what IC50 value has been reported for Cc1c(C(F)(F)F)nnc(Oc2ccc(OC(F)(F)F)cc2F)c1C(=O)Nc1cccc(S(C)(=N)=O)c1 (single isomer, unassigned) [Compound 1496] ?
Out: ≤ 20 nM

In: Would you mind telling me what IC50 value was observed for COc1nc(Br)ccc1Oc1ncc(C(F)(F)F)cc1C(=O)Nc1cccc(S(C)(=N)=O)c1 (stereo not shown) ?
Out: ≤ 20 nM

In: Dear colleague, I am looking for the recorded IC50 of the following molecule: CS(=O)(=O)c1cccc(NC(=O)c2cc(C(F)(F)F)cnc2OCCC(F)(F)F)c1
Out: 40 to 200 nM

In: IC50 for COc1cc(C#N)ccc1Oc1ncc(C23CCOCC2C3)cc1C(=O)Nc1cccc(S(C)(=N)=O)c1 (stereo not shown) ?
Out: 200 to 500 nM

In: What does the record list as IC50 for COc1cc(Oc2ncc(C(F)(F)F)cc2C(=O)Nc2cccc(S(C)(=N)=O)c2)ccc1C#N (stereo not shown) ?
Out: 200 to 500 nM

In: Quick one: IC50 of COc1cc(C#N)ccc1Oc1nnc(C(F)(F)F)c(C)c1C(=O)Nc1cccc(C(=O)N2CCNCC2)c1 ?
Out: 40 to 200 nM

In: Which IC50 reading was recorded for the molecule NC(=O)c1ccc(NC(=O)c2cc(C(F)(F)F)cnc2OC2CC(C(F)(F)F)C2)cc1 (mixture of isomers) ?
Out: 200 to 500 nM

In: Can you look up the measured IC50 of Cc1nc(F)ccc1Oc1ncc(C(F)(F)F)cc1C(=O)Nc1cccc([S@](C)(=N)=O)c1 (single isomer, unassigned) for me?
Out: ≤ 20 nM

In: If you can, please state the reported IC50 value of Cc1c(C(F)(F)F)nnc(Oc2ccc(Cl)cc2F)c1C(=O)Nc1cccc(S(C)(=N)=O)c1 (single isomer, unassigned) [Compound 1472] .
Out: ≤ 20 nM

In: Please look up its IC50: COc1c(Oc2nnc(C(F)(F)F)c(C)c2C(=O)Nc2cccc(S(C)(=O)=O)c2)ccc(Cl)c1F
Out: ≤ 20 nM

In: IC50 for COc1cc(C#N)ccc1Oc1nnc(-c2ccc(C#N)cc2)c(C)c1C(=O)Nc1cccc(S(C)(=N)=O)c1 (stereo not shown) ?
Out: 20 to 40 nM

In: # input molecule: COc1cc(C#N)ccc1Oc1nnc(-c2ccc(C(F)F)cc2)c(C)c1C(=O)Nc1cccc([S@](C)(=N)=O)c1 ; wanted: its IC50
Out: 20 to 40 nM
